// reported normalized growth for each item listed
- experiment: chemical genetic growth profiling, strain panel (AID 1159580);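 note: tested at 20 µM; growth read once vehicle control cultures reached saturation at 30 °C; 1 = growth at the plate median or of vehicle wells; lower values mean less growth of the strain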
- condition-summary: S. cerevisiae deletion strains, growth OD, locus YMR307W, strain GAS1, hits give low values
Out of some 5,500 compounds screened, about 2,000 (36%) were called active. About 18% were inconclusive and are not listed. Some of the results follow.
metric: normalized growth

1. O=C1CC(c2ccccc2)Oc2ccccc21 (stereo unspecified) = 1.01
2. O=C(O)CSCC(=O)N1CCc2c([nH]c3ccccc23)C1C(F)(F)F (stereo unspecified) = 1.1
3. COc1cc(OC)c2c(c1)OC(c1ccccc1)CC2=O (stereo unspecified) = 0.902
4. O=C(CSc1ccc(C(F)(F)F)cn1)N1CCc2c([nH]c3ccccc23)C1C(F)(F)F (stereo unspecified) = 0.935
5. O=C(O)CSCCOc1ccccc1 = 1.05
6. CC1(C)C2CC[C@]3(C)C(C(=O)C=C4[C@@H]5C[C@@](C)(C(=O)O)CC[C@]5(C)CC[C@]43C)[C@@]2(C)CC[C@@H]1OC(=O)CCC(=O)O (stereo partly specified) = 1.01

###

Catalogue of compounds with associated normalized growth
- experiment: chemical genetic growth profiling, strain panel (AID 1159580)
- condition-summary: S. cerevisiae deletion strains, growth OD, locus YDR150W, strain NUM1, hits give low values
Hit rate of the full screen: of about 5,500 compounds, about 2,000 (36%) were called active. Another 18% or so got no clear call; they are omitted. Some of the results follow.
metric: normalized growth

1) NC/C=C/C(=O)O = 1.01
2) O=C(Nc1ccccc1C(=O)NC1CCCCNC1=O)c1cccs1 (stereo not drawn) = 0.996
3) COc1cc2c(cc1OC)C(=O)C(CC1CCN(Cc3ccccc3)CC1)C2 (stereo not drawn) = 0.977

###

Entries and their measured normalized growth follow.
- experiment: chemical genetic growth profiling, strain panel (AID 1159580);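 note: tested at 20 µM; growth read once vehicle control cultures reached saturation at 30 °C; 1 = growth at the plate median or of vehicle wells; lower values mean less growth of the strain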
- condition-summary: S. cerevisiae deletion strains, growth OD, locus YML120C, strain ndi1, hits give low values
Among all 5,500 compounds or so, about 2,000 (36%) were called active. Another 18% or so got no clear call; they are omitted. Some of the results follow.
metric: normalized growth

1) CC[C@H]1OC(=O)C[C@@H](O)[C@H](C)[C@@H](O[C@@H]2O[C@H](C)[C@@H](O[C@H]3C[C@@](C)(O)[C@@H](O)[C@H](C)O3)[C@H](N(C)C)[C@H]2O)[C@@H](CC=O)C[C@@H](C)C(=O)/C=C/C(C)=C/[C@@H]1CO[C@@H]1O[C@H](C)[C@@H](O)[C@@H](OC)[C@H]1OC = 1 (inactive)
2) Cc1c(N(C)C)c(=O)n(-c2ccccc2)n1C = 0.993 (inactive)
3) COc1cccc([C@]2(O)CCCC[C@H]2CN(C)C)c1 = 0.979 (inactive)
4) COc1cc(O)c2c(=O)cc(C)oc2c1CC=C(C)C = 0.976 (inactive)

###

Some compounds, each annotated with its measured normalized growth.
- experiment: chemical genetic growth profiling, strain panel (AID 1159580);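 note: tested at 20 µM; growth read once vehicle control cultures reached saturation at 30 °C; 1 = growth at the plate median or of vehicle wells; lower values mean less growth of the strain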
- condition-summary: S. cerevisiae deletion strains, growth OD, locus YJL187C, strain SWE1, hits give low values
In all, about 5,500 compounds went through this assay and about 2,000 (36%) were called active. Roughly 18% stayed inconclusive and do not appear here. This is one part of the list.
metric: normalized growth

1. COc1cccc([C@]2(O)CCCC[C@H]2CN(C)C)c1 = 0.973
2. CC(=O)O[C@H]1C(=O)[C@@]2(C)C([C@H](OC(=O)c3ccccc3)[C@]3(O)C[C@H](OC(=O)[C@H](O)[C@@H](NC(=O)c4ccccc4)c4ccccc4)C(C)=C1C3(C)C)[C@]1(OC(C)=O)CO[C@@H]1C[C@@H]2O (some centres not stated) = 0.986
3. COc1ccc2c(c1)OC[C@@H](Cc1ccc(OC)c(OC)c1)[C@H]2O = 1
4. COC(=O)c1c(C)[nH]c(C)c1C(C)=O = 0.995
5. Cc1ccc(Oc2ccc(C)cc2)cc1 = 0.993
6. N#Cc1cnn(-c2ccccc2)c1-n1cccc1 = 0.976
7. CNc1ccccc1C(=O)N1CCc2c([nH]c3ccccc23)C1=O = 0.981
8. CNC1(C)C2CCC(C2)C1(C)C (configuration not stated) = 0.995
9. OCCN(CCO)c1nc(N2CCCCC2)c2nc(N(CCO)CCO)nc(N3CCCCC3)c2n1 = 0.989
10. CC(=O)O[C@]1(C(C)=O)CCC2C3C=C(Cl)C4=CC(=O)CC[C@]4(C)C3CC[C@@]21C (some centres not stated) = 0.952
11. CCC(C(=O)O)c1ccccc1 (configuration not stated) = 0.971
12. CC(=O)OC1CC23CC24CCC(OC2OCC(O)C(O)C2O)C(C)(C)C4CCC3C2(C)CC3OC4(CC(C)C3C12C)OC(O)C1(C)OC41 (configuration not stated) = 0.996
13. CC(=O)/C(=C\Nc1ncccn1)S(=O)(=O)c1ccc(Cl)cc1 = 1
14. COc1c(O)cc2oc3cc(O)c(CC=C(C)C)c(O)c3c(=O)c2c1CC=C(C)C = 0.936
15. COc1ccc(-c2cc(=O)c3c(O)cc(OC)c(OC)c3o2)c(OC)c1 = 1.02
16. CN1C/C(=C\c2ccccc2Cl)C(=O)/C(=C/c2ccccc2Cl)C1 = 0.942
17. CCSC(=N)N = 1.01
18. Cc1cccc(Nc2cc(Cl)nc(SCC(=O)O)n2)c1C = 0.996
19. C[C@@H](N)CO = 0.988
20. CCCCCC(C)N (configuration not stated) = 1.02
21. Cc1ccc2cc(C)c(C)cc2c1 = 0.993
22. Cc1cc(=O)c2c(O)cc(O)c(C)c2o1 = 0.935

###

- experiment: chemical genetic growth profiling, strain panel (AID 1159580);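 note: tested at 20 µM; growth read once vehicle control cultures reached saturation at 30 °C; 1 = growth at the plate median or of vehicle wells; lower values mean less growth of the strain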
- condition-summary: S. cerevisiae deletion strains, growth OD, locus YMR058W, strain fet3
Screen size: about 5,500 compounds; about 2,000 (36%) were called active. Another 18% or so got no clear call; they are omitted. Rule as the data show it: active = normalized growth mostly below about 0.91 (no sharp cut-off); inconclusive = no clear call, values can overlap the other calls; inactive = mostly above about 0.92. The list shows a part of the results.
Possible outcomes: 1.0 for active, 0.0 for inactive

1. CCc1nc(N)nc(N)c1-c1ccc(Cl)cc1 = 0.0
2. C1CCc2nnnn2CC1 = 0.0
3. CC(=O)OCC(CCn1cnc2cnc(N)nc21)COC(C)=O = 0.0
4. OCC(O)Cc1ccc2c(c1)OCO2 (stereo not drawn) = 0.0
5. CCc1ccc(CCOc2ccc(CC3SC(=O)NC3=O)cc2)nc1 (stereo not drawn) = 0.0
6. CC(=O)CC(=O)CCC(=O)O = 0.0
7. CC(=O)[C@H]1CCC2C3C[C@H](C)C4=CC(=O)CC[C@]4(C)C3[C@@H](O)C[C@@]21C (stereo partly drawn) = 0.0
8. C=CC1=C(C(=O)O)N2C(=O)[C@@H](NC(=O)/C(=N/O)c3csc(N)n3)[C@H]2SC1 = 0.0
9. C[C@@H]1O[C@@H](O[C@H]2[C@@H](Oc3cc(O)c4c(c3)O[C@H](c3ccc(O)cc3)CC4=O)O[C@H](CO)[C@@H](O)[C@@H]2O)[C@H](O)[C@H](O)[C@H]1O = 0.0
10. COc1cccc([C@]2(O)CCCC[C@H]2CN(C)C)c1 = 0.0
11. COc1ccc2c(c1)OC[C@@H](Cc1ccc(OC)c(OC)c1)[C@H]2O = 0.0
12. CN=C(NC#N)NCCSCc1nc[nH]c1C = 0.0
13. COc1ccc(-c2coc3c(OC)c(OC)cc(O)c3c2=O)cc1 = 0.0
14. COc1ccc2cc1Oc1ccc(cc1)C[C@H]1c3c(cc4c(c3Oc3cc5c(cc3OC)CCN(C)[C@@H]5C2)OCO4)CCN1C = 0.0
15. CN1CCc2cc3c(cc2C1O)OCO3 (stereo not drawn) = 0.0
16. OC(CCN1CCCCC1)(c1ccccc1)c1ccccc1 = 0.0
17. CC1(C)C2CC[C@]3(C)C(C(=O)C=C4[C@@H]5C[C@@](C)(C(=O)O)CC[C@]5(C)CC[C@]43C)[C@@]2(C)CC[C@@H]1OC(=O)CCC(=O)O (stereo partly drawn) = 0.0
18. CCC1(c2ccccc2)C(=O)NCNC1=O = 0.0
19. Cc1cc(C(C)(C)CC(C)(C)C)ccc1OCCOCC[N+](C)(C)Cc1ccccc1 = 1.0
20. CC(=O)O[C@]1(C(C)=O)CCC2C3C=C(C)C4=CC(=O)CCC4(C)C3CCC21C (stereo partly drawn) = 0.0
21. COc1cc2c(cc1OC)C(=O)C(CC1CCN(Cc3ccccc3)CC1)C2 (stereo not drawn) = 0.0
22. O=C1CC(c2ccc(O)c(O)c2)Oc2cc(O)cc(O)c21 (stereo not drawn) = 0.0
23. CC1(C)C2CC[C@]3(C)C(C(=O)C=C4[C@H]5C[C@@](C)(C(=O)O)CC[C@]5(C)CC[C@]43C)[C@@]2(C)CC[C@@H]1O (stereo partly drawn) = 0.0
